Listed here: items and their measured pIC50.
test.target: UniProt Q8WWR8
experiment.notes: IC50 inhibition assay using 4MU-NANA as the substrate, NEU4
Format: biochemical
Design: GST; made in house; host or cells: E. coli
particulars: 4MU-NANA as the substrate; read-out: IC50 NEU4
// pIC50: -log10(molar conc.)

{"columns": ["molecule", "pIC50"],
 "data": [
  ["CC(=O)N[C@@H]1C(O)C=C(C(=O)O)OC1C(O)C(O)Cn1cc(-c2ccc(C(=O)O)cc2)nn1 (some centres unmarked) [7h]", 5.52],
  ["CCCCC(=O)N[C@@H]1C(O)C=C(C(=O)O)OC1C(O)C(O)CO (some centres unmarked) [compound 31]", 3.96],
  ["CCC(=O)N[C@H]1[C@H]([C@H](O)[C@H](O)CO)OC(C(=O)O)=C[C@@H]1O [compound 29]", 4.06]
]}

// pIC50 lookup, molecule = [N-]=[N+]=NCC(=O)N[C@@H]1C(O)C=C(C(=O)O)OC1C(O)C(O)CO (some centres unmarked) [compound 40] , result: 5.25

// pIC50 lookup, molecule = CCCCCCC(=O)NCC(O)C(O)C1OC(C(=O)O)=CC(O)[C@H]1NC(C)=O (some centres unmarked) [compound 52] , result: 3.51

// pIC50 lookup, molecule = Cc1ccc(-c2cn(CC(=O)N[C@@H]3C(O)C=C(C(=O)O)OC3C(O)C(O)CO)nn2)cc1 (some centres unmarked) [compound 42] , result: 3.96

---

System: NEU1, NEU2, NEU3, NEU4
experiment.notes: Isoenzyme specificity/selectivity from 4MU-NANA IC50 across the four human neuraminidases
Format: biochemical
particulars: isoenzyme(s) the compound is specific for; dual (bispecific) when ratio of IC50 is about 3 or less
measured.endpoint: Target

{"columns": ["compound", "measured.endpoint", "data.value"],
 "data": [
  ["O=C(Cn1cc(-c2ccc(C(F)(F)F)cc2)nn1)N[C@@H]1C(O)C=C(C(=O)O)OC1C(O)C(O)CO (stereo partly shown) [compound 41]", "Target", "NEU2"],
  ["O=C(O)C1=C[C@H](O)[C@@H](NC(=O)C2CC2)[C@H]([C@H](O)[C@H](O)CO)O1 [compound 37]", "Target", "NEU1"],
  ["O=C(O)C1=C[C@H](O)[C@@H](NC(=O)C2CCC2)[C@H]([C@H](O)[C@H](O)CO)O1 [compound 38]", "Target", "NEU1"]
]}

---

test.target: NEU4 (Homo sapiens, UniProt Q8WWR8)
experiment.notes: IC50 inhibition assay using 4MU-NANA as the substrate, NEU4
Assay type: biochemical
Design: GST; made in house; host or cells: E. coli
particulars: 4MU-NANA as the substrate; read-out: IC50 NEU4
measured.endpoint: IC50 (µM)
Give just the number in µM; leave the unit off.

Some entries whose results are on file:
{"columns": ["compound", "test.target", "data.value"],
 "data": [
  ["CCCCCC(=O)NCC(O)C(O)C1OC(C(=O)O)=CC(O)[C@H]1NC(C)=O (stereo partly shown)", "NEU4 (Homo sapiens, UniProt Q8WWR8)", 290],
  ["CC(=O)N[C@H]1[C@H]([C@H](O)[C@H](O)Cn2cc(-c3ccc(Oc4ccccc4)cc3)nn2)OC(C(=O)O)=C[C@@H]1O", "NEU4 (Homo sapiens, UniProt Q8WWR8)", 0.97],
  ["CCCCCCC(=O)N[C@H]1[C@H]([C@H](O)[C@H](O)CO)OC(C(=O)O)=C[C@@H]1O", "NEU4 (Homo sapiens, UniProt Q8WWR8)", 470],
  ["CC(=O)Nc1ccc(-c2cn(C[C@@H](O)[C@@H](O)[C@@H]3OC(C(=O)O)=C[C@H](O)[C@H]3NC(C)=O)nn2)cc1", "NEU4 (Homo sapiens, UniProt Q8WWR8)", 11],
  ["CC(C)CCC(=O)N[C@H]1[C@H]([C@H](O)[C@H](O)CO)OC(C(=O)O)=C[C@@H]1NC(=N)N", "NEU4 (Homo sapiens, UniProt Q8WWR8)", 47]
]}

Here is another compound to look at.
// IC50 lookup, compound = "CC(=O)N[C@H]1[C@H]([C@H](O)[C@H](O)Cn2cc(-c3ccc(C(F)(F)F)cc3)nn2)OC(C(=O)O)=C[C@@H]1O" , result: 5

---

test.target: NEU1 (Homo sapiens)
Construct: made in house; host or cells: HEK293 (lentiviral transduction), crude lysate
experiment.notes: IC50 inhibition assay using 4MU-NANA as the substrate, NEU1
Type: biochemical
particulars: 4MU-NANA as the substrate; read-out: IC50 NEU1
measured.endpoint: IC50

{"columns": ["molecule", "data.value"],
 "data": [
  ["CCCCCC(=O)NC[C@@H](O)[C@@H](O)[C@@H]1OC(C(=O)O)=C[C@H](O)[C@H]1NC(=O)CC", "1.4 µM"],
  ["CCCCCCC(=O)NCC(O)C(O)C1OC(C(=O)O)=CC(O)[C@H]1NC(C)=O (stereo partly shown)", "9.9 µM"],
  ["CC(=O)Nc1ccc(-c2cn(C[C@@H](O)[C@@H](O)[C@@H]3OC(C(=O)O)=C[C@H](O)[C@H]3NC(C)=O)nn2)cc1", "59 µM"],
  ["CC(=O)N[C@@H]1C(O)C=C(C(=O)O)OC1C(O)C(O)Cn1cc(-c2ccc(C(=O)O)cc2)nn1 (stereo partly shown)", "240 µM"]
]}

// IC50 lookup, molecule = O=C(Cn1cc(-c2ccc(C(F)(F)F)cc2)nn1)N[C@@H]1C(O)C=C(C(=O)O)OC1C(O)C(O)CO (stereo partly shown) , result: > 500 µM

// IC50 lookup, molecule = CCC(=O)N[C@H]1C=C(C(=O)O)O[C@@H]([C@H](O)[C@H](O)CO)[C@@H]1NC(C)=O [25a] , result: > 500 µM

// IC50 lookup, molecule = CC(=O)N[C@H]1[C@H]([C@H](O)[C@H](O)CO)OC(C(=O)O)=C[C@@H]1NC(=O)C1CC1 [25c] , result: > 500 µM

---

test.target: NEU1 (Homo sapiens, UniProt Q99519)
Construct: made in house; host or cells: HEK293 (lentiviral transduction), crude lysate
experiment.notes: IC50 inhibition assay using 4MU-NANA as the substrate, NEU1
Assay type: biochemical
particulars: 4MU-NANA as the substrate; read-out: IC50 NEU1
Friendly reminder: IC50 below 200 µM is class 1, at or above is class 0.

Use these answered entries as a reference point.
{"columns": ["molecule", "category.label"],
 "data": [
  ["CC(=O)Nc1ccc(C(=O)NCCCCC(=O)NC[C@@H](O)[C@@H](O)[C@@H]2OC(C(=O)O)=C[C@H](O)[C@H]2NC(C)=O)cc1", "class 0"],
  ["O=C(O)C1=C[C@H](O)[C@@H](NC(=O)C2CC2)[C@H]([C@H](O)[C@H](O)CO)O1", "class 1"],
  ["CCCCC(CC)C(=O)N[C@H]1[C@H]([C@H](O)[C@H](O)CO)OC(C(=O)O)=C[C@@H]1O (mixture of isomers)", "class 1"],
  ["CCC(=O)N[C@H]1[C@H]([C@H](O)[C@H](O)CO)OC(C(=O)O)=C[C@@H]1O", "class 1"],
  ["CC(=O)N[C@@H]1C(NC(=N)N)C=C(C(=O)O)OC1C(O)C(O)Cn1cc(-c2ccc(C(=O)O)cc2)nn1 (stereo partly shown)", "class 0"]
]}

In plain terms, does "CC(=O)N[C@H]1[C@H]([C@H](O)[C@H](O)Cn2cc(-c3ccc(C(=O)O)cc3)nn2)OC(C(=O)O)=C[C@@H]1N=[N+]=[N-]" come in under 200 µM for IC50?
class 0

In plain terms, does "CC(=O)N[C@H]1[C@H]([C@H](O)[C@H](O)Cn2cc(-c3ccc(N(C)C)cc3)nn2)OC(C(=O)O)=C[C@@H]1O" come in under 200 µM for IC50?
class 1

---

test.target: NEU4 (Homo sapiens)
Sequence (Q8WWR8 1-484): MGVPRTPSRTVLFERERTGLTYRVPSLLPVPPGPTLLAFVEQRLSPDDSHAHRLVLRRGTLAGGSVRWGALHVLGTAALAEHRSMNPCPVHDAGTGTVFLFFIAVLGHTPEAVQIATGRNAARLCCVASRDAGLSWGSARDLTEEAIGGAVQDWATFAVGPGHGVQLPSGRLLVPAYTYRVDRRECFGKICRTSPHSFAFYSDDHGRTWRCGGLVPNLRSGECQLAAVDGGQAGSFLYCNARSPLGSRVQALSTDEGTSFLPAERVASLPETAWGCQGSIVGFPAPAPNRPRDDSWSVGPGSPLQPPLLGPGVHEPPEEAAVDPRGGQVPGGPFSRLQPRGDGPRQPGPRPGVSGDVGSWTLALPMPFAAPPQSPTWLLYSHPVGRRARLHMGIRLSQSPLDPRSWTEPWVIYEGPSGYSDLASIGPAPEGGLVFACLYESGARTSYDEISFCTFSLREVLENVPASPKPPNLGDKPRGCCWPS
experiment.notes: Inhibition of GM3 cleavage, NEU4
measured.endpoint: IC50 (µM)
Give just the number in µM; leave the unit off.

// IC50 lookup, molecule = CC(=O)N[C@@H]1C(O)C=C(C(=O)O)OC1C(O)C(O)Cn1cc(-c2ccc(-c3ccccc3)cc2)nn1 (stereo partly shown) [7i] , result: 3.7
